System: Coriolus versicolor (P5)
Assay: Inhibitory test with giant colonies of Basidiomycetes
Assay type: cell-based
Settings: 6 ppm active compound in agar medium, 26° C., compared to medium without active compound
Protocol: Inhibitory test with giant colonies of Basidiomycetes Mycelium pieces were punched out of colonies of Gloeophyllum trabeum (P1), Coniophora puteana (P2), Poria placenta (P3), Lentinus tigrinus (P4), Coriolus versicolor (P5) and Sterum sanguinolentum (P6) and incubated at 26° C. on an agar medium. […]
Each entry below lists one item and its recorded P5: inhibition of the growth of the fungal threads value.
// unit must come after the numeric part

// query Consider the molecule Fc1cccc(F)c1-c1c(Cl)nc2ncnn2c1NC1CCCC1 and give its measured P5: inhibition of the growth of the fungal threads.
// result 100%

###

Tested on: Coriolus versicolor (P5)
Assay: Inhibitory test with giant colonies of Basidiomycetes
Format: cell-based
Conditions: 6 ppm active compound in agar medium, 26° C., compared to medium without active compound
Method: Inhibitory test with giant colonies of Basidiomycetes Mycelium pieces were punched out of colonies of Gloeophyllum trabeum (P1), Coniophora puteana (P2), Poria placenta (P3), Lentinus tigrinus (P4), Coriolus versicolor (P5) and Sterum sanguinolentum (P6) and incubated at 26° C. on an agar medium. […]
Each entry below lists one item and its recorded P5: inhibition of the growth of the fungal threads value.
Your answer is read as %, so omit the unit and give the number.

C[C@H](Nc1c(-c2c(F)cc(F)cc2F)c(Cl)nc2ncnn12)C(F)(F)F :: 100

Here is the next item to consider.
// query Consider the compound Clc1nc2ncnn2c(NC2CCCC2)c1-c1ccccc1 and give its measured P5: inhibition of the growth of the fungal threads.
// result 100

###

Each entry below lists one item and its recorded P5: inhibition of the growth of the fungal threads value.
system: Coriolus versicolor (P5); assay: Inhibitory test with giant colonies of Basidiomycetes; type: cell-based; conditions: 6 ppm active compound in agar medium, 26° C., compared to medium without active compound
Your answer is read as %, so omit the unit and give the number.

Before answering, review these 2 worked examples.
CC(C)Nc1c(-c2ccc(Cl)cc2Cl)c(Cl)nc2ncnn12 :: 95
Fc1cccc(F)c1-c1c(Cl)nc2ncnn2c1N1CCCCCC1 :: 100

// query Consider the molecule Fc1cccc(-c2c(Cl)nc3ncnn3c2NC2CCCC2)c1 and give its measured P5: inhibition of the growth of the fungal threads.
// result 91
